B1: RAB11B (parent)
chain: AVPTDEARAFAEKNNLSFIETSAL

Variants of: B1
Experiment: protein stability index of a GFP-peptide fusion (GPS, HEK-293T) (PSI 1-6); higher = more stable;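 note: lentivirally expressed fusions sorted by FACS into six bins by GFP to DsRed ratio, PSI derived from sequencing read proportions per bin multiplied by bin number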
Conditions: c terminus: a fixed tail appended
Response key: satisfied means protein stability index >= 3; not satisfied means protein stability index < 3.

- changes: "D5G"
  assigned category: "not satisfied"
- changes: "A23L"
  assigned category: "not satisfied"
- changes: "F18L"
  assigned category: "satisfied"
- changes: "T4H"
  assigned category: "not satisfied"
- changes: "D5R"
  assigned category: "not satisfied"
- changes: "A11Y"
  assigned category: "not satisfied"
- changes: "L24Y"
  assigned category: "satisfied"
- changes: "V2Y"
  assigned category: "not satisfied"
- changes: "E12D"
  assigned category: "not satisfied"
- changes: "L16D"
  assigned category: "satisfied"
- changes: "P3N"
  assigned category: "satisfied"
- changes: "I19Q"
  assigned category: "satisfied"
- changes: "V2P"
  assigned category: "satisfied"
- changes: "F18I"
  assigned category: "satisfied"
- changes: "T4K"
  assigned category: "not satisfied"
- changes: "E12H"
  assigned category: "not satisfied"
- changes: "D5K"
  assigned category: "not satisfied"
- changes: "S22A"
  assigned category: "not satisfied"
- changes: "E12Q"
  assigned category: "not satisfied"
- changes: "A11K"
  assigned category: "not satisfied"
- changes: "E12C"
  assigned category: "not satisfied"
